The origin of these recorded values is PubChem BioAssay (NCI).

What TGI was measured for each of the following?
# System: MDA-MB-231 breast
# Test description: NCI tumour cell line growth inhibition, 48 h
Answer in µM, number only, no unit symbol.

(Q) Recorded TGI of O=C(Nc1ccc(-n2ccc3c(NC(=O)c4ccccc4)ncnc32)cc1)Nc1ccc(Cl)c(C(F)(F)F)c1 , please.
(A) 3.66

(Q) Recorded TGI of CC/C=C\C[C@H](O)C/C=C1/C(=O)C=C[C@@H]1C/C=C\CCCC(=O)OCCS(=O)(=O)c1ccccc1 , please.
(A) 20.7

(Q) Recorded TGI of CSC1=NC(=O)CCN1C1OCC(OC(C)=O)C(OC(C)=O)C1OC(C)=O (stereo not given) , please.
(A) 22.4

(Q) Recorded TGI of COc1ccc(Nc2[nH]n(C3=Nc4ccccc4Sc4ccccc43)c(=O)c2C#N)cc1 , please.
(A) 11.9
